Data origin: ChEMBL document CHEMBL5154944

- Organism: Homo sapiens
- assay-details: Selectivity ratio of IC50 for recombinant human MMP12 to IC50 for recombinant human MMP2
Non-standard residues stand in square brackets, D forms with d. Residues, ends and D or L forms follow the SMILES beside them. *: point of attachment. Benzoyl(4-OPh(4-CONH2)) = NC(=O)c1ccc(Oc2ccc(C(=O)*)cc2)cc1; Benzenesulfonyl(4-OPh) = O=S(=O)(c1ccc(Oc2ccccc2)cc1)*; NMeI = CC[C@H](C)[C@H](NC)C(=O)O; NMeE = CN[C@@H](CCC(=O)O)C(=O)O; NMeM = CN[C@@H](CCSC)C(=O)O; β3hP = O=C(O)C[C@@H]1CCCN1; Dab = NCC[C@H](N)C(=O)O; GABA = NCCCC(=O)O; βAla = NCCC(=O)O
measurement-kind: Ratio IC50
Answers are plain numbers.

These solved cases illustrate the format of a correct answer.
* CSCC[C@@H](C(=O)N1CCC[C@H]1CC(N)=O)N(C)C(=O)[C@H](CC(C)C)NC(=O)[C@H](C)NC(=O)[C@H](CC(=O)O)NC(=O)[C@H](CC(N)=O)NC(=O)CCCNS(=O)(=O)c1ccc(Oc2ccccc2)cc1 ({Benzenesulfonyl(4-OPh)-GABA}-NDAL[NMeM][β3hP]-NH2) | 43
* CC[C@H](C)[C@@H](C(=O)N1CCC[C@H]1CC(N)=O)N(C)C(=O)[C@H](CC(C)C)NC(=O)[C@H](CCN)NC(=O)[C@H](CC(=O)O)NC(=O)[C@H](CC(N)=O)NC(=O)CCCNS(=O)(=O)c1ccc(Oc2ccccc2)cc1 ({Benzenesulfonyl(4-OPh)-GABA}-ND[Dab]L[NMeI][β3hP]-NH2) | 6010

Q. Dear colleague, please send me the reported Ratio IC50 for CC(C)C[C@H](NC(=O)[C@H](CCN)NC(=O)[C@H](CC(=O)O)NC(=O)[C@H](CC(N)=O)NC(=O)CCNC(=O)c1ccc(Oc2ccc(C(N)=O)cc2)cc1)C(=O)N(C)[C@@H](CCC(=O)O)C(=O)N1CCC[C@H]1CC(N)=O ({Benzoyl(4-OPh(4-CONH2))-βAla}-ND[Dab]L[NMeE][β3hP]-NH2) when you can.
A. 8390

====

- system: Matrix metalloproteinase-14 (Homo sapiens)
- assay-details: Inhibition of recombinant human MMP14 using MOCAc-Lys-Pro-Leu-Gly-Leu-A2pr(Dnp)-Ala-Arg-NH2 as substrate preincubated for 15 mins followed by substrate addition by fluroscence based assay
Non-standard residues stand in square brackets, D forms with d. Residues, ends and D or L forms follow the SMILES beside them. *: point of attachment. Benzoyl(4-OPh(4-CONH2)) = NC(=O)c1ccc(Oc2ccc(C(=O)*)cc2)cc1; Benzenesulfonyl(4-OPh) = O=S(=O)(c1ccc(Oc2ccccc2)cc1)*; NMeI = CC[C@H](C)[C@H](NC)C(=O)O; NMeE = CN[C@@H](CCC(=O)O)C(=O)O; β3hP = O=C(O)C[C@@H]1CCCN1; Dab = NCC[C@H](N)C(=O)O; Ava = NCCCCC(=O)O; GABA = NCCCC(=O)O
measurement-kind: pIC50
One number for each entry, as −log10 of the molar value.

* CC[C@H](C)[C@@H](C(=O)N1CCC[C@H]1CC(N)=O)N(C)C(=O)[C@H](CC(C)C)NC(=O)[C@H](C)NC(=O)[C@H](CC(=O)O)NC(=O)[C@H](CC(N)=O)NC(=O)CCCNS(=O)(=O)c1ccc(Oc2ccccc2)cc1 ({Benzenesulfonyl(4-OPh)-GABA}-NDAL[NMeI][β3hP]-NH2) | 7.96

Dear reader, for each entry below, please note its pIC50.
1. CC(C)C[C@H](NC(=O)[C@H](CCN)NC(=O)[C@H](CC(=O)O)NC(=O)[C@H](CC(N)=O)NC(=O)CCCNS(=O)(=O)c1ccc(Oc2ccccc2)cc1)C(=O)N(C)[C@@H](CCC(=O)O)C(=O)N1CCC[C@H]1CC(N)=O ({Benzenesulfonyl(4-OPh)-GABA}-ND[Dab]L[NMeE][β3hP]-NH2)
2. CNC(=O)[C@H](Cc1c[nH]c2ccccc12)NC(=O)[C@@H](CC(=O)NO)CC(C)C

A.
1. 6.28
2. 8.96

Q. Report pIC50 from Matrix metalloproteinase-14 (Homo sapiens) testing of CC(C)C[C@H](NC(=O)[C@H](CCN)NC(=O)[C@H](CC(=O)O)NC(=O)[C@H](CCC(=O)O)NC(=O)CCCCNC(=O)c1ccc(Oc2ccc(C(N)=O)cc2)cc1)C(=O)N(C)[C@@H](CCC(=O)O)C(=O)N1CCC[C@H]1CC(N)=O ({Benzoyl(4-OPh(4-CONH2))-Ava}-ED[Dab]L[NMeE][β3hP]-NH2)
A. 5.65
